test.target: UniProt P00784
Sequence (whole entry): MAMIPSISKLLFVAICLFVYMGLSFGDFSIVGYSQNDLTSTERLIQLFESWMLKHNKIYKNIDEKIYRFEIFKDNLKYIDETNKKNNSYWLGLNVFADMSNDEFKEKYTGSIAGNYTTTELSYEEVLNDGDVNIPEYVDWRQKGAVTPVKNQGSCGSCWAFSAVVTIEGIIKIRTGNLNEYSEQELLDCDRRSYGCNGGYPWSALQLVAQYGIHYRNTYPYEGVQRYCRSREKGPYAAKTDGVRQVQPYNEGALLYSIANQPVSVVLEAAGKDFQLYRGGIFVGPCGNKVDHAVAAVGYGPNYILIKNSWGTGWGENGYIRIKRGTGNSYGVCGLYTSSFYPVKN
assay.protocol: The second order rate constant of inactivation was reported
Catalogue of log10(K2) values
quantity.measured: log10(K2) (log10 of the value in M⁻¹ min⁻¹)

INSERT INTO results (smi, quantity_measured, measured_value) VALUES
  ('CCOC(=O)[C@@H]1N[C@H]1C(=O)OCC', 'log10(K2)', 1.08),
  ('CCOC(=O)[C@@H]1N[C@H]1C(=O)O', 'log10(K2)', 3.55),
  ('O=C(O)[C@H]1CS1', 'log10(K2)', 2.35),
  ('CCOC(=O)[C@H]1N[C@@H]1C(=O)OCC', 'log10(K2)', 1.04),
  ('CCOC(=O)[C@@H]1O[C@H]1C(=O)OCC', 'log10(K2)', 2.00),
  ('O=C(O)[C@@H]1CN1', 'log10(K2)', 3.01),
  ('CCOC(=O)[C@H]1N[C@@H]1C(=O)O', 'log10(K2)', 3.67),
  ('CCOC(=O)[C@H]1O[C@@H]1C(=O)OCC', 'log10(K2)', 2.02);

Value source: ChEMBL document CHEMBL1133053
